System: Lung cancer cell line NCI-H358 containing KRas G12C mutation
assay-overview: Assay for cell proliferation (Cell-titer Glo, 5 days)
Assay type: cell-based, human
experimental-setup: Homo sapiens, NCI-H358, 120 h, NCI-H358, 5 days, Cell-titer Glo; read-out: IC50 (nM), Inhibition of NCI-H358 Cell Proliferation
measured-quantity: IC50 (nM)

compound	assay-target	unit-descriptor	IC50
C=CC(=O)N1C[C@H](C)N(c2nc(=O)n(-c3c(C4CC4)nc(N4CCN(C)CC4)nc3C3CC3)c3nc(-c4c(N)cccc4F)c(F)cc23)C[C@H]1C [Compound 99]	Lung cancer cell line NCI-H358 containing KRas G12C mutation	nM	5.8

[I] C=CC(=O)N1CCN(c2nc(=O)n(-c3c(C4CC4)nc(N4CCNCC4)nc3C3CC3)c3nc(-c4ccccc4F)c(Cl)cc23)[C@@H](C)C1 [Compound 116]
[II] C=CC(=O)N1C[C@H](C)N(c2nc(=O)n(-c3c(C(C)C)nc(OCCN(C)C)nc3C(C)C)c3nc(-c4ccccc4F)c(Cl)cc23)C[C@H]1C [Compound 24]
[III] C=CC(=O)N1CCN(c2nc(=O)n(-c3c(C)cc4scnc4c3C(C)C)c3nc(-c4ccccc4F)c(Cl)cc23)[C@@H](C)C1 [Compound 68]
[IV] C=CC(=O)N1CCN(c2nc(=O)n(-c3c(C)cc(S(C)(=O)=O)nc3C(C)C)c3nc(-c4c(O)cccc4F)c(F)cc23)[C@@H](C)C1 [Compound 60]
Prompt: Sort ascending by IC50. Would you mind listing the labels in the order requested?
Completion: II, I, IV, III
(II: 9.1 nM, I: 15.8 nM, IV: 81.7 nM, III: 344 nM)

----------
assay-overview: Human hepatocyte clearance study
Format: in vitro ADME
experimental-setup: human, pooled cryopreserved human hepatocytes (suspension); working cell density 2 × 10^6 viable cells/mL; read-out: Human In vitro Clint (μl/min/10^6 cells)
Measured hepatocyte CLint at 1 µM, listed per entry.
Write the value in µL/min/1e6 cells as a bare number.

Worked cases, answers included:
compound	hepatocyte CLint at 1 µM / µL/min/1e6 cells
C=CC(=O)N1C[C@H](C)N(c2nc(=O)n(-c3c(F)cc4c(ncn4C)c3C(C)C)c3nc(-c4c(N)cccc4F)c(F)cc23)C[C@H]1C (atropisomer, axis not shown)	1
C=CC(=O)N1C[C@H](C)N(c2nc(=O)n(-c3c(C4CC4)ncnc3C3CC3)c3nc(-c4ccccc4F)c(Cl)cc23)C[C@H]1C	10.3

Prompt: Looking for the measured hepatocyte CLint at 1 µM of C=CC(=O)N1CCN(c2nc(=O)n(-c3c(C4CC4)ncnc3C3CC3)c3nc(-c4c(O)cccc4F)c(Cl)cc23)[C@@H](C)C1 , can you help?
Completion: 14.5

----------
In this section, each of the compounds is paired with its reported Human Hepatocyte Remaining Percentage @ 120 min (%).
Test system: pooled human hepatocytes
assay-overview: Human hepatocyte clearance study
Assay type: in vitro ADME
experimental-setup: working cell density 0.5 × 10^6 viable cells/mL
Output spec: scalar in %, unitless text.

cpd-smiles	reported-result
C=CC(=O)N1CCN(c2nc(=O)n(-c3c(C4CC4)ncnc3C3CC3)c3nc(-c4ccccc4F)c(Cl)cc23)[C@@H](C)C1	27.9
C=CC(=O)N1CCN(c2nc(=O)n(-c3c(C(C)C)nc(N4CCNCC4)nc3C(C)C)c3nc(-c4ccccc4F)c(Cl)cc23)[C@@H](C)C1	75.7
C=CC(=O)N1CCN(c2nc(=O)n(-c3c(C(C)C)nc(OC)nc3C(C)C)c3nc(-c4ccccc4F)c(Cl)cc23)[C@@H](C)C1	2.1

Prompt: Look up Human Hepatocyte Remaining Percentage @ 120 min (%): C=CC(=O)N1CCN(c2nc(=O)n(-c3c(C(C)C)nc(C)nc3C(C)C)c3nc(-c4ccccc4F)c(Cl)cc23)[C@@H](C)C1
Completion: 18.6

Prompt: For the compound shown here, C=CC(=O)N1CCN(c2nc(=O)n(-c3c(C(C)C)nc(OCCN(C)C)nc3C(C)C)c3nc(-c4c(O)cccc4F)c(Cl)cc23)[C@@H](C)C1 , give the reported Human Hepatocyte Remaining Percentage @ 120 min (%).
Completion: 83.3

Prompt: Field request: Human Hepatocyte Remaining Percentage @ 120 min (%) | item: C=CC(=O)N1CCN(c2nc(=O)n(-c3c(C(C)C)nc(OCCN(C)C)nc3C(C)C)c3nc(-c4ccccc4F)c(Cl)cc23)[C@@H](C)C1
Completion: 103

----------
System: pooled human hepatocytes
assay-overview: Human hepatocyte clearance study
Type: in vitro ADME
experimental-setup: working cell density 2 × 10^6 viable cells/mL
measured-quantity: Human Hepatocyte Remaining Percentage @ 120 min (%)
Your answer should be a plain number; it is taken to be in %.

compound	unit-descriptor	reported-result
C=CC(=O)N1C[C@H](C)N(c2nc(=O)n(-c3c(F)cc4c(ncn4C)c3C(C)C)c3nc(-c4c(N)cccc4F)c(F)cc23)C[C@H]1C (atropisomer, axis not shown)	%	82.9

Prompt: Can you look up the measured Human Hepatocyte Remaining Percentage @ 120 min (%) of C=CC(=O)N1CCN(c2nc(=O)n(-c3c(C4CC4)ncnc3C3CC3)c3nc(-c4c(O)cccc4F)c(Cl)cc23)[C@@H](C)C1 for me?
Completion: 16.5

Prompt: For C=CC(=O)N1C[C@H](C)N(c2nc(=O)n(-c3c(C4CC4)ncnc3C3CC3)c3nc(-c4c(N)cccc4F)c(Cl)cc23)C[C@H]1C , what is its reported Human Hepatocyte Remaining Percentage @ 120 min (%)?
Completion: 47.8

----------
Test system: Lung cancer cell line NCI-H358 containing KRas G12C mutation
assay-overview: Assay for cell proliferation (Cell-titer Glo, 5 days)
Type: cell-based, human
experimental-setup: Homo sapiens, NCI-H358, 120 h, NCI-H358, 5 days, Cell-titer Glo; read-out: IC50 (nM), Inhibition of NCI-H358 Cell Proliferation
measured-quantity: IC50 (nM)

cpd-smiles	unit-descriptor	IC50
C=CC(=O)N1C[C@H](C)N(c2nc(=O)n(-c3c(C4CC4)nc(C)nc3C3CC3)c3nc(-c4c(O)cccc4F)c(F)cc23)C[C@H]1C	nM	22.8
C=CC(=O)N1CCN(c2nc(=O)n(-c3c(C4CC4)nc(NC(C)=O)nc3C3CC3)c3nc(-c4ccccc4F)c(F)cc23)[C@@H](C)C1	nM	58.2
C=CC(=O)N1C[C@H](C)N(c2nc(=O)n(-c3c(C(C)C)ncnc3C(C)C)c3nc(-c4c(N)cccc4F)c(F)cc23)C[C@H]1C	nM	5.3
C=CC(=O)N1C[C@H](C)N(c2nc(=O)n(-c3c(C(C)C)nc(N4CCNCC4)nc3C(C)C)c3nc(-c4c(N)cccc4F)c(Cl)cc23)C[C@H]1C	nM	4.1

[1] C=CC(=O)N1[C@H](C)CN(c2nc(=O)n(-c3c(C4CC4)ncnc3C3CC3)c3nc(-c4ccccc4F)c(F)cc23)C[C@@H]1C
[2] C=CC(=O)N1C[C@H](C)N(c2nc(=O)n(-c3c(C4CC4)ncnc3C3CC3)c3nc(-c4c(O)cccc4F)c(Cl)cc23)C[C@H]1C
[3] C=CC(=O)N1CCN(c2nc(=O)n(-c3c(C4CC4)nc(N)nc3C3CC3)c3nc(-c4c(O)cccc4F)c(Cl)cc23)[C@@H](C)C1
Prompt: Rank ascending by IC50. Sort the labels as requested; that list is your answer.
Completion: 2, 3, 1
(2: 3.5 nM, 3: 10.1 nM, 1: 299 nM)

----------
assay-overview: Human hepatocyte clearance study
Format: in vitro ADME
experimental-setup: human, pooled cryopreserved human hepatocytes (suspension); working cell density 0.5 × 10^6 viable cells/mL; scaling factor 2544.3; read-out: Human Scale-up Clint
measured-quantity: CLint scaled at 1 µM (mL/min/kg)
Unit mL/min/kg implied. Number only.

cpd-smiles	unit-descriptor	reported-result
C=CC(=O)N1CCN(c2nc(=O)n(-c3c(C4CC4)nc(OCCN(C)C)nc3C3CC3)c3nc(-c4ccccc4F)c(F)cc23)[C@@H](C)C1	mL/min/kg	4.5
C=CC(=O)N1CCN(c2nc(=O)n(-c3c(C4CC4)ncnc3C3CC3)c3nc(-c4ccccc4F)c(Cl)cc23)[C@@H](C)C1	mL/min/kg	53
C=CC(=O)N1CCN(c2nc(=O)n(-c3ccc4c(ncn4C)c3C(C)C)c3nc(-c4ccccc4F)c(Cl)cc23)[C@@H](C)C1	mL/min/kg	34
C=CC(=O)N1CCN(c2nc(=O)n(-c3c(C(C)C)nc(N4CCNCC4)nc3C(C)C)c3nc(-c4ccccc4F)c(Cl)cc23)[C@@H](C)C1	mL/min/kg	11.5
C=CC(=O)N1CCN(c2nc(=O)n(-c3c(C(C)C)nc(OC)nc3C(C)C)c3nc(-c4ccccc4F)c(Cl)cc23)[C@@H](C)C1	mL/min/kg	162
C=CC(=O)N1C[C@H](C)N(c2nc(=O)n(-c3c(C(C)C)nc(OCCN(C)C)nc3C(C)C)c3nc(-c4ccccc4F)c(Cl)cc23)C[C@H]1C	mL/min/kg	15.1
C=CC(=O)N1CCN(c2nc(=O)n(-c3c(C4CC4)nc(C)nc3C3CC3)c3nc(-c4c(O)cccc4F)c(F)cc23)[C@@H](C)C1	mL/min/kg	21.5
C=CC(=O)N1CCN(c2nc(=O)n(-c3c(C4CC4)nc(C)nc3C3CC3)c3nc(-c4c(N)cccc4F)c(F)cc23)[C@@H](C)C1	mL/min/kg	21.7

Prompt: Return reported CLint scaled at 1 µM; argument: C=CC(=O)N1CCN(c2nc(=O)n(-c3c(C(C)C)nc(OCCN(C)C)nc3C(C)C)c3nc(-c4c(O)cccc4F)c(Cl)cc23)[C@@H](C)C1
Completion: 7.5

Prompt: Recorded CLint scaled at 1 µM of C=CC(=O)N1CCN(c2nc(=O)n(-c3c(C(C)C)nc(N)nc3C(C)C)c3nc(-c4ccccc4F)c(Cl)cc23)[C@@H](C)C1 , please.
Completion: 49.2

Prompt: GET /values?readout=CLint scaled at 1 µM&item= C=CC(=O)N1CCN(c2nc(=O)n(-c3c(C4CC4)nc(OCCN(C)C)nc3C3CC3)c3nc(-c4ccccc4F)c(Cl)cc23)[C@@H](C)C1
Completion: 12.9

Prompt: Consider the compound shown here: C=CC(=O)N1CCN(c2nc(=O)n(-c3c(C(C)C)nc(OCCN(C)C)nc3C(C)C)c3nc(-c4c(N)cccc4F)c(Cl)cc23)[C@@H](C)C1 What is its recorded CLint scaled at 1 µM?
Completion: 6.4

Prompt: Consider the compound C=CC(=O)N1C[C@H](C)N(c2nc(=O)n(-c3c(C4CC4)nc(C)nc3C3CC3)c3nc(-c4c(O)cccc4F)c(F)cc23)C[C@H]1C and give its measured CLint scaled at 1 µM.
Completion: 18.5

Prompt: Record request: CLint scaled at 1 µM value, item C=CC(=O)N1CCN(c2nc(=O)n(-c3c(C(C)C)nc(C)nc3C(C)C)c3nc(-c4ccccc4F)c(Cl)cc23)[C@@H](C)C1
Completion: 70.2
